- Tested on: tRNA 2'-phosphotransferase TPT1 (Candida albicans SC5314)
- Assay Info: tRNA 2'-phosphotransferase blockers, C. albicans – biochemical, fluorescence polarization, primary screen (AID 1962)
- Test Parameters: recombinant caTPT1, FP RNA substrate dephosphorylation; at 5 µM
In all, about 300,000 compounds went through this assay and about 2,500 (0.83%) were called active.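 Rule for the calls: active = inhibition above the mean of all tested compounds plus 3 SD, set per screening campaign (cut at about 24% in these data); inactive = the rest.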 This is one part of a sample in which actives are shown more often than they occur.
Form entry, call: pick from active, inactive

Example cases with answers are listed next.
COc1ccc(N2CC(C)Cn3c2nc2c3c(=O)n(Cc3ccccc3F)c(=O)n2C)c(OC)c1 (stereo not given) :: inactive
CCOc1ccc(CNC(=O)C2CCCN(c3nnc(C)c4c(C)n(-c5ccccc5)nc34)C2)cc1 (stereo not given) :: inactive
CCOc1nnc(C)c2c(C)n(-c3cccc(Cl)c3)nc12 :: active
Cn1cc(CN2CCCCC2c2ccccn2)c(-c2ccc3c(c2)OCCO3)n1 (stereo not given) :: inactive
CCC(=C/c1sc2ccc3ccccc3c2[n+]1C)/C=C1\Sc2ccc3ccccc3c2N1C :: active

Hello, I am checking results. What call was entered for O=c1[nH]nc(SCCS(=O)(=O)c2ccc(F)cc2)n1-c1ccccc1C(F)(F)F ?
inactive

Which outcome was entered for the compound COc1ccc(Cn2c(C)c(C)c(C#N)c2NC(=O)Nc2ccc(F)cc2)cc1 in this test?
inactive

Recorded call for Cc1ccc(S(=O)(=O)N(C)c2nc3ccccc3n3c(C(C)C)nnc23)cc1 ?
active

Returns: the outcome recorded for O=C(NNC(=S)NC1CC2CCC1C2)c1ccc(Cl)cc1 (stereo not given) in this assay.
inactive

Status in this test for COCCCNC(=O)Cn1c(=O)n(Cc2ccccc2Cl)c(=O)c2cc(OC)c(OC)cc21 ?
inactive
